Hello, the source for this data is patent US10100046B2, in case you need it.

Measured IC50, listed per entry.
target: full-length human LSD1 (Homo sapiens (Human))

Query :: Short answer please: IC50, full-length human LSD1 (Homo sapiens (Human)), entry `Cn1ncc2cc(-c3sc(N4CCC5(CCNC5)CC4)nc3-c3ccc(C#N)cc3)ccc21`
Result :: ≤ 0.1 µM

Query :: Short answer please: IC50, full-length human LSD1 (Homo sapiens (Human)), entry N#Cc1ccc(-c2nc(N3CCC4NCCC4C3)cc(=O)n2-c2ccc(C3CC3)cc2)cc1F (stereo not drawn)
Result :: ≤ 0.1 µM

Query :: Short answer please: IC50, full-length human LSD1 (Homo sapiens (Human)), entry `Cn1cnc2cc(-c3sc(N4CCC(N)CC4)nc3-c3ccc(C#N)cc3)ccc21`
Result :: ≤ 0.1 µM
